Tested on: K4 kissing-loop RNA reporter
testName: apparent KD of K4 kissing-loop reporter; higher = weaker reporter binding
reportedConditions: Eterna round: R107; input ligand: arginine 13.2 mM
Measured apparent KD of K4 kissing-loop reporter by item
readout: apparent KD of K4 kissing-loop reporter (nM)

macromoleculeSequence | readout | readoutValue
CUAUAGACCCUUCGGAUAGUGAUGUUGUCACGAGGACCGGUACGGCCGCCACUCGCUGCCACCAUACCGCUUCACGGAACGAGCA [theeternabot_exclusion_KL_Trp_A_7] | apparent KD of K4 kissing-loop reporter | 429
GGAUGGUAGGCGGCCGCCACUAAAUGUGAACACAUACAAGCCAGUGAUGUUGGUAUGAUGGACAAUAGGACCGGGCCUAGAUAGA [Exclusion - Tryptophan B (Freestyle 7)] | apparent KD of K4 kissing-loop reporter | 448
UGUACCGAGUCAGGAUAUGAACGACUGACAAAAGUCGGUCGAAUAUCCAGUGAUGUUGGAAAUAAAUCAGAAGGGACUUGGUACU [FmnBS 15 #SwitchBubble #StaticStem] | apparent KD of K4 kissing-loop reporter | 805

* * *

System: K4 kissing-loop RNA reporter
testName: apparent KD of K4 kissing-loop reporter; higher = weaker reporter binding
reportedConditions: Eterna round: R107; input ligand: none

macromoleculeSequence | apparent KD of K4 kissing-loop reporter, nM
CAUACGCAUGGAGGAUAUGAGAUUACUCGUAUCAUUUAAUAUUCUCAGUGAUGUUGAGAUUUGGGCUCAGAAGGCCAUGUGUAUG [Ex FMN B 16] | 290
UCCUGCAAUCUGCCACGAAAGUGGGUUGAUACCAGAGUCGAAAGACUCCCUUGGCAGCGAGUGAUGUUCGUUGCAGGUGUUUAAA [MatMod 11 - Jieux - Exclusion - Theophylline A] | 186
AAAGAUCUUCUAGAAACUAGAAGAUCAAGAGAGGAUAUCCGAAUUCGGAGAAGGCUCACUAAGUGAUGUUUGGACCCAAAGGGAA [AK3 SS FMN A] | 1650
AGUAUGUAAUAUGGCAUAUUUAGAACUGAAGGAGCGCCGAAUAAGGCAGGUAGGUCGCGGAAUCAUGAGUGAUGUUCAUGACUAU [KL-SSArg-A26] | 123
GCCCGGGCGAGUGAUGUUCGCCCACGUGAUACCAGUGCCAUCCAACACCCUUGGCAGCACGCGGGCAGUGAUGUUGCCCUUGUAU [Exclusion Theophylline A GF 4] | 122
CGCAUACCUGCGCUAGUAGUGAUGUUACAGCGAGGACCGGUACGGCCGCCACUCGUGACGGUCGCAAAACGCGUUGCAGAACACU [theeternabot_exclusion_KL_Trp_A_32] | 247
CUAUGAGUGAUGUUCGUAGGUUGGGCUUGGCAGGAUAUGGGAUCUUCCAGAAGGGCCGAUUCCGGCGAGUGAUGUUCGUUGGUCU [Exclusion FMN A GF30] | 50.1
AAACGUUGUUGCGAUACCAGCUGAUCGGAAACGAUCAUGCUGGAGUGAUGUUCCAGGAAAAGCCCUUGGCAGCGCAACGACGAAA [MAT - Same State Theophlline B - Mod of Eli - D30] | 228
AGAGUGAUGUUUUUUUGAAGUGAGUAAUGUCGAGGACCGGUACGGCCGCCACUCGAGUGAUGUUAGUGAUGUUGAUGUAGUGAUG [?lmullin] | 72.4
CGCAGUGAUGUUGCUAUUAUUCUUGGUUAACGAGGACCGGUACGGCCGCCACUCGAUUUCUGUCUAGUCCAGUGUUUUUUUGAGU [whbob_EX_Tryp_A_t7] | 439
GCCGUACGCAUGGAUACCAGCCGACCUGAUGUUAAGCUGGUGCCGUAGUGAUGUUACGAAGGCCCUUGGCAGCCAUGCGUACGGC | 209
GGUUUAUAGGAGGAUACCAGUACGGAUAAAGUACAUUAAUAGUAGAGUGAUGUUCUAAAGUACCCUUGGCAGCUUAGAUUAAGUU [ExTheophylB.I] | 133
UGACAUUGCUCAGAUACCAGACACGAGGAUCACCCGUGUGCCAAAACGUACUAAAUAAGUGUCCCUUGGCAGCUGAGCAAUGUCU [TheoBX 13] | 30.1
CAUAGGAAACUAUGUUUCUCUCUUACUGAAGGAGCGCGUGAAAACGCAGGUAGGUCGCAGAAUUUGAGAGUGAUGUUCUCAAUAA [Ex Arginine A K4 13] | 151
ACGCGCGCGAGUGAUGUUCGGAGCGGCUGGCAGGAUAUGCCGCAAGGCAGAAGGGUCGUGGCGCGUCCAGGGUAACCUGGACGCG [#2 Exclusion - FMN A Attempt #28 (HarryS)] | 466
AAGUUUUAUAAACUCAUGGUUUCGUCAGAUACCAGCCUCGAGAGAGGCCCUUGGCAGCUGCAUGAGUGAUGUUCAUGUUCGAAGA [KL_XTheoA8] | 374
AUGUCUUAUAAACUCGUGGUUUCGAUCGAUACCAGUAGCGAGAGUUACCCUUGGCAGCGACAUGAGUGAUGUUCAUGUACGAAGA [KL-XTheoA4] | 94.3
UGACUACAAAAGGAAUAAUCCUAGUGAUGUUAGGAUAUGCUGAUAAGCAGAAGGAACGGAGAUCGAAGGAUCUCAUAUGUAGUCU [whbob_Ex_FMNA__2th193] | 86.9
CAUGUGUCUAUUACGAUGGAUACAUAUACUGAGGAUAUCACAUUUAUGAGAAGGCAGUAAACUGCGAGUGAUGUUCGCAGUACGU [FMN A SS t8] | 214
AAUGCAUAGUGAAGGAGCGCGAUAAGCAGUGAUGUUGCUUAGCUAUUAUUCAUUUUUUUAACGCAGGUAGGUCGCACUUUGCAUA [JR_ExcArginiB_Sub016] | 135
AUUUUUUUGUCAGGAUAUUAGUAUGCUUUUGGUUUGUUAGUGAUGUUGAUAUUUUGUUUAUGUAUUUAAGAAGGGAUUUAGCGGU [etvuumullin] | 362
UUAGGAGUGGAAGGAUAUCCUGGUGUGGGUGGUGUUAGUGAUGUUGGUGGUGCAGUGAUGUUGCGCGGAGAAGGUCCGGUGUUGA [BDazzled - #4 - Exc. FMN B] | 434
UAAGAGGACCACUACAAGAGUCCUCGAAUACGAGGACCGGUACGGCCGCCACUCGAUAACUUGUAGUGAUGUUGCAAGUAAGAAU [BrourdMod 2 - Jieux - Same State Tryptophan A] | 85.3

* * *

System: MS2 coat protein
testName: apparent KD of MS2 coat protein; higher = weaker reporter binding
reportedConditions: Eterna round: R107; input ligand: theophylline 20 uM
Please use criterion met whenever apparent KD of MS2 coat protein is not below 70 nM, and criterion not met whenever it is.

macromoleculeSequence | classLabel
UGGUACAUGGCGGCCGCCACUUCACGUAAAAUAAAAACGUGAGGAUCACCCACGUAAUAAGUUGGGAGGACCGGGUCAUGUACCU | criterion met
ACGUCCCGUUUACUCGUGGGUUAGGUCGAUACCAGUAUUCAAACUUACCCUUGGCAGCGACAUGAGGAUCACCCAUGUGCGAAGA [XTheo A #22] | criterion not met
GGUUGGUAUAUAUAUAUAUUGAUUACUGAAGGAGCGGGAAAUAACCCAGGUAGGUCGCAGAGAUCCACAUGAGGAUCACCCAUGU [!0.G] | criterion not met
GCCCUGCGCCCGGGACCGGCAAGAUCCAUGCGAGGACCGGUACGGCCGCCACUCGCAGACGUACAUGAGGAUCACCCAUGUCCUC [theeternabot_exclusion_MS2_Trp_A_24] | criterion met
CCAUGGUUGACGGCCGCCACUCAUUAGUCUUUGAGGUUGGCACAUGAGGAUCACCCAUGUCUGCAGAGGACCGGGUCUCGCCACA [theeternabot_sameState_MS2_Trp_B_15] | criterion not met
UCACAUGAGGAUCACCCAUGUGUCAGAGAAGGAGCGGCCGCAAGGCCAGGUAGGUCGCUCGGGUAUUGUGAGGUUCACCCGUGUG [#1 Exclusion - Arginine A Attempt #12 (Inspired by cyborg)] | criterion not met

* * *

Tested on: K4 kissing-loop RNA reporter;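 note: bound reporter read as fluorescence of individual clusters on recovered sequencing chips by microscopy, with normalized cluster intensities fitted with a binding model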
testName: apparent KD of K4 kissing-loop reporter; higher = weaker reporter binding
reportedConditions: Eterna round: R107; input ligand: theophylline 20 uM
Measured apparent KD of K4 kissing-loop reporter by item

macromoleculeSequence | measurementTarget | measurementUnits | apparent KD of K4 kissing-loop reporter
AAGGGCGGGACUUUCUCGCCGGAUAGAGAUACCAGCCCAGCAAUGGGCCCUUGGCAGCUCACUGACCUCAGUGAUGUUGAGGUUC [Quintege] | K4 kissing-loop RNA reporter | nM | 208
CUAUGGAAACAUAGUAGUCGGGAAACCGAUACCAGUAUGGAAACAUACCCUUGGCAGCGGAAUGAUUAAACGGAGUGAUGUUCCG [Theophylline A K4 18] | K4 kissing-loop RNA reporter | nM | 223
CGCGAGUCCUUUCAGUGAGUGAUGUUUACGCGAGGACCGGUACGGCCGCCACUCGAUGGUAUACCAAGACAUCAGCAGAUUGUCU [theeternabot_exclusion_KL_Trp_A_18] | K4 kissing-loop RNA reporter | nM | 387
AAACAACUUGACGAUACCAGCUUACUCGGCAAGCCAGUGAUGUUGGUGAAAAGGAGUCAAAGCCCUUGGCAGCGUCGAAGGUCUG [Raatarerin] | K4 kissing-loop RNA reporter | nM | 119
AGCCGAAAGGCGAGUGCUGUCACUCCGGAAGGAGCGCAGGAAACUGCAGGUAGGUCGCCGGAGUGAUGUUCCGGUGCAGCACUCA [Omei KL Arginine A Exc B v6] | K4 kissing-loop RNA reporter | nM | 561
CACAGAUCCUAAGGAUAUGGAGUGAUGUUCGCAAGUUCUUGGUGUGCAUUCAUCUGUCCUAUCAACCCAGAAGGUAGGAAGUCAC [theeternabot_exclusion_KL_FMN_B_1] | K4 kissing-loop RNA reporter | nM | 993

Attribution: the supplement of paper PMC9170038
